target: Leucine-rich repeat serine/threonine-protein kinase 2 (Homo sapiens, UniProt Q5S007, G2019S); experiment: Inhibition of LRRK2 G2019S mutant (unknown origin) by TR-FRET assay
Sequence (Q5S007 whole entry G2019S): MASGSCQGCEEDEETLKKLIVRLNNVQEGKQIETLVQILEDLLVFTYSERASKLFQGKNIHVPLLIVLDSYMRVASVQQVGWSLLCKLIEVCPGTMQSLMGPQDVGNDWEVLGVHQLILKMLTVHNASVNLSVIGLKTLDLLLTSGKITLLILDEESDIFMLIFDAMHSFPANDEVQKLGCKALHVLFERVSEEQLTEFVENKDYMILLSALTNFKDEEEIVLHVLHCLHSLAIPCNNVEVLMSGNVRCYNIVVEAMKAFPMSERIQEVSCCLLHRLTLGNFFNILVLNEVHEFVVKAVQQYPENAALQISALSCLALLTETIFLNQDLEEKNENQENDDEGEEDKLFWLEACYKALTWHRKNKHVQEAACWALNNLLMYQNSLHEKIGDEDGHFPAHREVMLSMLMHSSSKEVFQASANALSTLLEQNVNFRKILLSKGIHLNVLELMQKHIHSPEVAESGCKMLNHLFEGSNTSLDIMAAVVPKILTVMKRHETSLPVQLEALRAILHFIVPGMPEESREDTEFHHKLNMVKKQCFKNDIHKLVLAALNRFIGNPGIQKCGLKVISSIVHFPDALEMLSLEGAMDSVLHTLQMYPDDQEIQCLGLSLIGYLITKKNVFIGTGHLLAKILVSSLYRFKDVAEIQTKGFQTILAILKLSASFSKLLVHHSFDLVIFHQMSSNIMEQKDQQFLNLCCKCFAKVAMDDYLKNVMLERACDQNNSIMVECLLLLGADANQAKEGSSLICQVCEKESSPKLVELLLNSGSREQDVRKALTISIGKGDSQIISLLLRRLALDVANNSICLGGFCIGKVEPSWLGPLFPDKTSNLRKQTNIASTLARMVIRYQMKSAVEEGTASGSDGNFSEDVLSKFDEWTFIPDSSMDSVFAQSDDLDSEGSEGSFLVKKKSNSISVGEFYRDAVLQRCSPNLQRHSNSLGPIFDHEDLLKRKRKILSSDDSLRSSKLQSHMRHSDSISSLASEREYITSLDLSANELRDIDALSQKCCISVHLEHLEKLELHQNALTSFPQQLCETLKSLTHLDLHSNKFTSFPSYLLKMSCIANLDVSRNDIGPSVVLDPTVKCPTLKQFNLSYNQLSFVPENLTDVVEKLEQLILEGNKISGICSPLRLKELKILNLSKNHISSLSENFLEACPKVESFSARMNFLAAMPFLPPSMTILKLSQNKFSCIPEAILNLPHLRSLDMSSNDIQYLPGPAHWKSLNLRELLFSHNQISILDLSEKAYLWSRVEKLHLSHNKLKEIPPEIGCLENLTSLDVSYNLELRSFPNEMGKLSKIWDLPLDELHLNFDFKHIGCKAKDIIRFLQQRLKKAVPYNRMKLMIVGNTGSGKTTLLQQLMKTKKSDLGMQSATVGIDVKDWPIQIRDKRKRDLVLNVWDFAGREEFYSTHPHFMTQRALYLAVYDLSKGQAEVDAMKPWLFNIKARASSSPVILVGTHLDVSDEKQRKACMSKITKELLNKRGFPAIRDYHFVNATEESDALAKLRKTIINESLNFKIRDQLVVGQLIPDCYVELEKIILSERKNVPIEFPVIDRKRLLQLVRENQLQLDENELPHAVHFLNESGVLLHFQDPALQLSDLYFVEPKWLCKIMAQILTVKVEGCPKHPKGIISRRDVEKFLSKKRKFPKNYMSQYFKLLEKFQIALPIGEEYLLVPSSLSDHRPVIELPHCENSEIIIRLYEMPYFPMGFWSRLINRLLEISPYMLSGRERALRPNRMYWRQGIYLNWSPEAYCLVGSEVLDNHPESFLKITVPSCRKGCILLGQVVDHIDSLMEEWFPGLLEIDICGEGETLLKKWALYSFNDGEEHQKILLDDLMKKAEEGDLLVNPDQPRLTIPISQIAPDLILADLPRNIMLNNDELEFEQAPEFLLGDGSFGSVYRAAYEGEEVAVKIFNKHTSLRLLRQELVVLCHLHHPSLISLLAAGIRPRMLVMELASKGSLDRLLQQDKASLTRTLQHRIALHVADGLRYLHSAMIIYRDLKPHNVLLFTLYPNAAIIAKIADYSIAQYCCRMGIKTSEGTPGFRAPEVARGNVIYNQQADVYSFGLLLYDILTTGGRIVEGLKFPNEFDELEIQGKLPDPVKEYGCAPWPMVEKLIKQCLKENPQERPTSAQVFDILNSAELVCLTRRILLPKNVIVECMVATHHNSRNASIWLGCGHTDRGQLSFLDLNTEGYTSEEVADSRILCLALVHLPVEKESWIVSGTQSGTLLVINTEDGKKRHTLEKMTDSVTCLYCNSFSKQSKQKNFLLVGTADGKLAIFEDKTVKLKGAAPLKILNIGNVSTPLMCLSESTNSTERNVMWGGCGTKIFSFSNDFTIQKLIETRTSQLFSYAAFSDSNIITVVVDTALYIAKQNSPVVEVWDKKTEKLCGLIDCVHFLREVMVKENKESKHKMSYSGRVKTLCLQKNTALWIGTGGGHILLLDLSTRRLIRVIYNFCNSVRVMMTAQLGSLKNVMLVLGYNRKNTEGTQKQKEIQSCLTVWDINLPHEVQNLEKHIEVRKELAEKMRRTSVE
Property label: IC50 (nM)

These solved cases illustrate the format of a correct answer.
CC(Sc1ccc2nnc(-c3cccc(Cl)c3)n2n1)c1ccn[nH]1 (stereo not drawn): 798
FC(F)(F)c1cccc(Sc2ccc3nnc(-c4ccccc4Cl)n3n2)c1: 1020
FC(F)(F)c1cccc(Sc2cn3c(-c4cccs4)cnc3cn2)c1: 2170
FC(F)(F)c1cccc(Oc2ccc3nnc(-c4ccccc4)n3n2)c1: 1550
CCC(Sc1ccc2nnc(-c3cccs3)n2n1)C(=O)OC (stereo not drawn): 167
[O-][S+](c1cccc(C(F)(F)F)c1)c1ccc2nnc(-c3ccccc3)n2n1 (stereo not drawn): 1230
Cc1cc2nnc(-c3cccs3)n2nc1Sc1cccc(C(F)(F)F)c1: 2070
COC(=O)C(C)Sc1ccc2nnc(-c3cccs3)n2n1 (stereo not drawn): 200
FC(F)(F)c1cccc(Sc2ccc3nnc(C4CCNCC4)n3n2)c1: 22100
FC(F)(F)c1cccc(Sc2ccc3nnc(C4CCOCC4)n3n2)c1: 2020

I = Brc1cccc(Sc2ccc3nnc(-c4cncs4)n3n2)c1
II = FC(F)(F)c1cccc(Sc2ccc3nnc(-c4ccncc4)n3n2)c1
Exam item: Please let me know which one, I or II , has a lower measured IC50 value. # reply format: chosen label
Marked response: I
